# Assayed target: μ opioid receptor (Homo sapiens)
# Sequence (P35372 whole entry): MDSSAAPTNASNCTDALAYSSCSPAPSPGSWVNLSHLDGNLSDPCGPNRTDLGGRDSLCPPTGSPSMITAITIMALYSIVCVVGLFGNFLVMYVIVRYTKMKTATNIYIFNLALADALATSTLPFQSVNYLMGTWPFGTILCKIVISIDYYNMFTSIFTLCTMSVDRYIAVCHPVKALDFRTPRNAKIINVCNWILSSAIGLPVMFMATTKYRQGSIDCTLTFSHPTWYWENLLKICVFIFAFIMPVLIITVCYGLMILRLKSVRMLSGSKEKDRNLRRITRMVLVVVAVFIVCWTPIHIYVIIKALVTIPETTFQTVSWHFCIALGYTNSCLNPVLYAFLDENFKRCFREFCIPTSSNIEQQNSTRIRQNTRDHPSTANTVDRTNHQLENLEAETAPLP
Measured attribute: pKi
Scale note: pKi = -log10(concentration in M).

Reference set (2 entries):
compound_structure_string=O=C(O)CNC(=O)/C=C1/CC[C@@]2(O)[C@H]3Cc4ccc(O)c5c4[C@@]2(CCN3CC2CC2)[C@H]1O5 measured_attribute=pKi number=8.52
compound_structure_string=O=C(O)CCCC(=O)N[C@@]12CCC(=O)[C@@H]3Oc4c(O)ccc5c4[C@@]31CCN(CC1CC1)[C@@H]2C5 measured_attribute=pKi number=8.39

// moving on: another record for pKi
[in] If you can, please state the reported pKi value of CC(=O)N[C@@]12CC[C@H](NCc3ccccc3)[C@@H]3Oc4c(O)ccc5c4[C@@]31CCN(CC1CC1)[C@@H]2C5 .
[out] 8.55
